Provide the recorded melting point for the entries that follow.
Answers are plain numbers, in °C.

O=C(O)Cc1nn(Cc2nc3cc(C(F)(F)F)ccc3s2)c(=O)c2ccccc12 [zopolrestat]    197

For every record below, what is its melting point?
1. COc1ccc(NS(=O)(=O)c2ccc(N)cc2)nn1 [sulfamethoxypyridazine]
2. CCCCC(C)CC (stereo unspecified) [3-methylheptane]
3. CC=1CCCC(C)(C)C=1/C=CC(C)=CC=CC(C)=CC(=O)O [Alitretinoin]
4. CCC(C)(C)C [2,2-Dimethylbutane]
5. NCc1cccc2c(Br)cccc12 [1-(5-bromonaphthalen-1-yl)methanamine]
6. O=C(O)C(c1ccccc1)c1ccccc1 [diphenylacetic acid]
7. C/C=C(\C)C(=O)O [tiglic acid]
8. O=C(Oc1ccccc1)c1ccccc1 [phenyl_benzoate]

[182, -121, 190, -100, 139, 147, 64, 70]

For every record below, what is its melting point?
1. CCCCc1ccccc1 [butylbenzene]
2. Nc1ccn([C@H]2CC[C@@H](CO)O2)c(=O)n1 [Zalcitabine]
3. NCCC(c1ccccc1)c1ccccc1 [3,3-diphenylpropylamine]

[-88, 212, 27]

For every record below, what is its melting point?
1. O=C(O)Cc1ccccc1Oc1ccc(Cl)cc1Cl [fenclofenac]
2. OCCCl [2-chloroethanol]
3. CCc1oc2ccccc2c1C(=O)c1ccc(O)cc1 [benzarone]
4. O=S(=O)(Cl)c1cc(S(=O)(=O)c2ccccc2)cs1 [4-(phenylsulfonyl)thiophene-2-sulfonyl chloride]
5. O=C(O)c1ccc([N+](=O)[O-])cc1 [4-nitrobenzoic acid]

1: 135; 2: -67; 3: 124; 4: 102; 5: 242

For every record below, what is its melting point?
1. O=C(O[C@@H]1[C@H]3C(=C/[C@H](C)C1)\C=C/[C@@H]([C@@H]3CC[C@H]2OC(=O)C[C@H](O)C2)C)[C@@H](C)CC [lovastatin]
2. CN(C)c1ccc(N=O)cc1 [N,N-dimethyl-4-nitrosoaniline]
3. CCCCOC(=O)c1ccc(O)cc1 [butylparaben]
4. Nc1ccccc1B(O)O [2-aminobenzeneboronic acid]

1: 174; 2: 86; 3: 68.5; 4: 189

---

Provide the recorded melting point for the entries that follow.
Give bare numbers, in °C.

// solved cases for melting point follow
O=C1O[C@H]([C@@H](O)CO)C(O)=C1O    191
c1ccc([Si]2(c3ccccc3)O[Si](c3ccccc3)(c3ccccc3)O[Si](c3ccccc3)(c3ccccc3)O2)cc1    180
O=C(O)c1ccc(Cl)c(Cl)c1    208
ICCI    81
CC(=O)OC(C)=O [Acetic anhydride]    -73
CC1(C)C(=O)OC2=C(CCC/C2=C\c2ccccc2)C1c1ccccc1 (stereo not given)    156
O=C(O)/C(=C/c1ccccc1)c1ccccc1    173
O=[N+]([O-])c1ccc(Cl)cc1[N+](=O)[O-]    23

For every record below, what is its melting point?
1. c1cc(C2CNCCN2)cs1 (stereo not given)
2. Cn1nc(-c2ccccc2)cc1N

98
127

---

metric name: melting point (°C)
Answers are plain numbers, in °C.

Clc1cccc(Cl)c1Cl    54
O=C(O)c1cc(F)ccc1O    180
CCc1nnc2cc(-c3ccccc3)[nH]n12 [3-ethyl-6-phenyl-5H-pyrazolo[5,1-c][1,2,4]triazole]    189

For every record below, what is its melting point?
1. O=C(O)c1ccccc1I
2. O=C[C@H](O)[C@H](O)[C@H](O)CO
3. CSCC[C@H](NC(=O)OCC1c2ccccc2-c2ccccc21)C(=O)O
4. O=C(O)C(Br)(Br)Br
5. O=Cc1cccc2c1CCOC2=O

1. 162
2. 84
3. 134
4. 132
5. 140
